Target: GlcNAc(b1-3)[GlcNAc(b1-6)]Gal(b1-4)GlcNAc
Experiment: glycan array binding signal (z-score within array); higher = stronger binding
Settings: glycan notation: IUPAC condensed, linker removed
The full list was thinned out, with the strongest signals kept by preference.
Measurement Label: glycan array binding signal (z-score)

Binder	glycan array binding signal (z-score)
F17aG (Escherichia coli), Q99003 (protein) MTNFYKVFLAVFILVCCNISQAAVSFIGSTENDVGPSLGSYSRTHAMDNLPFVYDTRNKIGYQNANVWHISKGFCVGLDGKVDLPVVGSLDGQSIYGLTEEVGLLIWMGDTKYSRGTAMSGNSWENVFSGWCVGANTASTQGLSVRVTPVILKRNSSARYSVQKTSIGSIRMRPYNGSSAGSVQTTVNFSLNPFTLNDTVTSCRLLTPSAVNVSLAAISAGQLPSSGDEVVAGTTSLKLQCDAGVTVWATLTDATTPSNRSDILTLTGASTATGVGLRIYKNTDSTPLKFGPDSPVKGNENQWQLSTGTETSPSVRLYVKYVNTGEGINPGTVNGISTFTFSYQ	5.68

Consider now this further binder.
Can you look up the measured glycan array binding signal (z-score) of F17-L (Escherichia coli) (protein) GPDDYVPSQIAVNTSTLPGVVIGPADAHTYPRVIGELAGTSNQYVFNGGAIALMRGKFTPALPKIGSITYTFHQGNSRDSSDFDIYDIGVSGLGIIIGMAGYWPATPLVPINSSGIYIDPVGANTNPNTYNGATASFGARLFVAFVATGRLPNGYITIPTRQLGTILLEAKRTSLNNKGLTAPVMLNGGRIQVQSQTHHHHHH for me?
-0.228

Data origin, for the record: the supplement of paper PMC8728848
